Would you mind telling me the reported RP-LC retention time of each entry?
experiment description: gradient 5% acetonitrile 3 min, to 50% in 2 min, to 85% in 15 min, held 3 min, 100 µL/min
applied conditions: column: Zorbax Extend-C18 2.1 x 50 mm; eluents: water / acetonitrile, 0.1% formic acid
Answer by giving the amount and then stating its unit.

compound	RP-LC retention time
COc1ccc(-c2noc(C3CCCN3C(=O)C3CCCC3)n2)cc1 (stereo not drawn)	978 s

For every listed record, write down its RP-LC retention time.
1. Cc1ccc(-c2noc(Cn3ccnc3)n2)cc1C
2. Cc1ccc(NC(=O)NCC2CCOCC2)cc1F
3. CS(=O)(=O)N(C1CCOCC1)C1CN(C(=O)c2cc(F)ccc2F)C1
4. COc1ccc(-c2nnc(Cc3nc(-c4ccc5c(c4)OCO5)no3)o2)cc1OC

a:
1: 659 s; 2: 710 s; 3: 687 s; 4: 940 s

----------
experiment description: gradient 5% acetonitrile 3 min, to 50% in 2 min, to 85% in 15 min, held 3 min, 100 µL/min
applied conditions: column: Zorbax Extend-C18 2.1 x 50 mm; eluents: water / acetonitrile, 0.1% formic acid
Kindly supply the reported RP-LC retention time values for the records listed here.
Answers are plain numbers, in s.

Answered cases to consult:
compound	RP-LC retention time (s)
CCc1noc(-c2cccnc2N2CCCN(Cc3ccc(Cl)cc3)CC2)n1	709
O=C(NC1CCCCC1)N1CCCC(Cn2cnc3cccnc32)C1 (stereo not drawn)	663
O=C(COc1ccc(Cl)cc1)NCC1CCOCC1	764
Cc1ccc(C)c(S(=O)(=O)N2CC(N(C(=O)NC(C)C)C3CCOCC3)C2)c1	689
O=C(Nc1nnc(C2CC(=O)N(c3ccccc3)C2)o1)c1ccc(F)cc1 (stereo not drawn)	708
CCOc1cccc2sc(N(CCCN(C)C)C(=O)CN3C(=O)CCC3=O)nc12	559
Cc1cccc(N2CCN(C(=O)C3CCc4sc(C(=O)N(C)C)cc4C3)CC2)c1 (stereo not drawn)	867
CCCCC1CCC(C(=O)Nc2nc(-c3ccc4c(c3)NC(=O)CO4)cs2)CC1 (stereo not drawn)	934

Respectfully, I request RP-LC retention time for each entry included below.
1. O=C(c1cccs1)N1CC(C(=O)N2CCN(c3ncccn3)CC2)C1
2. COc1ccc(C2(C(=O)N3CC(c4noc(COc5ccc(F)cc5)n4)C3)CC2)cc1
3. Cc1ccccc1OCC(=O)Nc1nnc(C2CC(=O)N(c3ccc(F)cc3)C2)o1 (stereo not drawn)
4. CCOc1ccccc1NC(=O)N1CCC2(CC1)N=C(c1cccc(F)c1)C(=O)N2

a:
[604, 974, 738, 902]

Items follow; give RP-LC retention time for each.
1. CCOC(=O)CNC(=O)N1CCCN(c2nc3cc(Br)ccc3n3cccc23)CC1
2. CCn1c(N2CCC(C(=O)N3CCN(c4ccccn4)CC3)CC2)cc(=O)n(C)c1=O
3. COc1cccc(CNC(=O)C2(C)CCCN(C(=O)Nc3cccc(C)c3C)C2)c1 (stereo not drawn)
4. CC(C)(C)c1csc(-c2csc(S(=O)(=O)NC3CCCCCC3)c2)n1
5. O=c1cc(CSc2nnc(-c3ccccc3F)o2)nc2sccn12
6. Cc1ccc(N2C(=O)N(CC(=O)N3CCC(C)CC3)C3CS(=O)(=O)CC32)cc1Cl (stereo not drawn)
7. Cc1ccccc1-c1noc(C2CCCN2S(=O)(=O)c2ccc(Br)s2)n1 (stereo not drawn)

a:
1. 671
2. 584
3. 855
4. 1010
5. 745
6. 879
7. 1230
